Source: paper PMC3041652

target: UniProt:P34960
Sequence (P34960 110-473): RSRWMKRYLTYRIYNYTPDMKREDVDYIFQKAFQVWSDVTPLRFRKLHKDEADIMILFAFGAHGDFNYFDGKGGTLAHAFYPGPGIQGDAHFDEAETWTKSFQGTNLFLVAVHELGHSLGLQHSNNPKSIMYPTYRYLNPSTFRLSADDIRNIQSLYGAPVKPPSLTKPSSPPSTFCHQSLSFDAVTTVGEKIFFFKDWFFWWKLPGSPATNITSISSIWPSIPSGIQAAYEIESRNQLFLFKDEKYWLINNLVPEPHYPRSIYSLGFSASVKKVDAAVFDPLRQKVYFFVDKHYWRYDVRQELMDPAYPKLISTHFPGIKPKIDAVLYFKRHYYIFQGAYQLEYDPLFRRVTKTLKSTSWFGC
measured.metric: Ki (nM)
Response body: numeric value in nM, unit text excluded.

stdin: State measured Ki of the compound NC(=O)[C@H](CCC(=O)O)NC(=O)[C@H](CCC(=O)O)NC(=O)[C@H](Cc1cc(-c2ccc(-c3cccc(Cl)c3)cc2)no1)CP(=O)(O)c1ccc(Br)cc1 [RXP470.1] with UniProt:P34960.
stdout: 4
